# experimental-target: Bcl-2 protein (Recombinant Human Bcl-2 Protein) (Homo sapiens, UniProt P10415)
# Construct: purchased Novus NBP2-34889
# Sequence (P10415 whole entry): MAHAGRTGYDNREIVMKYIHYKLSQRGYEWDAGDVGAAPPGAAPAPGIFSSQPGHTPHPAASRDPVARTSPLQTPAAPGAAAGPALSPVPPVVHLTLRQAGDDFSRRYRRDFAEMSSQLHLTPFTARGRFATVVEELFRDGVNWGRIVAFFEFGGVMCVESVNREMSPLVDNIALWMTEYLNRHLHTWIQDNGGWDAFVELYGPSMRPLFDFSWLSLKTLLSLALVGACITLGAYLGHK
# test-name: Binding evaluation of mixture library compounds to Bcl-2 using AS-MS (affinity selection mass spectrometry)
# condition-details: AS-MS, mixture library, Bcl-2; replicate n = 1; ASMS Ratio(%)=(A−C)/B×100
Recorded ASMS ratio (%) n = 1 values for a group of compounds are listed next.
test-readout: ASMS ratio (%) n = 1

>  <compound>
CCOc1cncc(-c2cc(CN3CCN(c4ccc(C(=O)N(CC)CC)cc4)CC3)cc(OC(F)(F)F)c2)c1

>  <measured-number>
1.6

$$$$
>  <compound>
CCOc1cncc(-c2ccc(C(C)N3CCN(c4ccc(C(=O)NS(=O)(=O)c5ccc(NCCSc6ccccc6)c([N+](=O)[O-])c5)cc4)CC3)cc2)c1 (stereo not drawn)

>  <measured-number>
61.6

$$$$
>  <compound>
CCOc1cccc(-c2ccccc2CN2CCN(c3ccc(C(=O)NS(=O)(=O)c4ccc(NCCSc5ccccc5)c([N+](=O)[O-])c4)cc3)CC2)c1

>  <measured-number>
49.9

$$$$
